Each entry below carries its reported Degree of HASMC proliferation.
test system: human aortic smooth muscle cell (HASMC); assay: PDGF-induced proliferation assay, HASMC (PrxII siRNA); format: cell-based; conditions: 10 nM, PDGF-BB 25 ng/mL, percent of untreated control
Value kind: Degree of HASMC proliferation (%)

Compound	Meas value
CN1C(=O)C2CSSC1(C)C(=O)N2Cc1ccc2ccccc2n1 (stereo not shown)	36.9
CN1C(=O)C2(C)SSCC1C(=O)N2C (stereo not shown)	17.1
CCN1C(=O)C2(C)SSCC1C(=O)N2CC (stereo not shown)	34.9
O=C1C2CSSC3(COCCN13)C(=O)N2Cc1ccccc1 (stereo not shown)	46.9
CCN1C(=O)C23COCCN2C(=O)C1CSS3 (stereo not shown)	31.1
CN1CCN2C(=O)C3CSSC2(C1)C(=O)N3C (stereo not shown)	34.4
CN1CCN2C(=O)C3CSSC2(C1)C(=O)N3Cc1ccccc1 (stereo not shown)	27.2

====

experiment: Measurement of redox potential (DTT redox buffers, HPLC); format: physicochemical; conditions: DTT(Red)/DTT(Ox) redox buffers, 3 h, 30° C., 50% reduction of test compound

Compound	Midpoint redox potential (E m) / mV
COc1cc(CN2C(=O)C3(C)SSCC2C(=O)N3C)cc(OC)c1OC (centres unmarked)	−296
CCN1C(=O)C2(C)SSCC1C(=O)N2CC (centres unmarked)	−296.79
CN1CCN2C(=O)C3CSSC2(C1)C(=O)N3Cc1ccccc1 (centres unmarked)	−272.86
CN1C(=O)C2CSSC1(C)C(=O)N2Cc1ccccn1 (centres unmarked)	−290.39
CN1C(=O)C2(C)SSCC1C(=O)N2C (centres unmarked)	−285.25
CN1C(=O)C2CSSC1(C)C(=O)N2Cc1ccc(F)cc1F (centres unmarked)	−292.74
CCN1C(=O)C23COCCN2C(=O)C1CSS3 (centres unmarked)	−268.53
CN1C(=O)C2CSSC1(C)C(=O)N2Cc1ccccc1 (centres unmarked)	−293.19
O=C1C2CSSC3(CCCN13)C(=O)N2Cc1ccccc1 (centres unmarked)	−300.98
CN1C(=O)C2CSSC1(C)C(=O)N2Cc1ccc2ccccc2n1 (centres unmarked)	−290.3
O=C1C2CSSC3(COCCN13)C(=O)N2Cc1ccccc1 (centres unmarked)	−272.6

====

test system: human aortic smooth muscle cell (HASMC); experiment: PDGF-induced proliferation assay, HASMC (PrxII siRNA); format: cell-based; conditions: 2.5 nM, PDGF-BB 25 ng/mL, percent of untreated control

Compound	Quantity unit	Degree of HASMC proliferation
CN1CCN2C(=O)C3CSSC2(C1)C(=O)N3Cc1ccccc1 (stereo not shown)	%	88.1
CN1C(=O)C2CSSC1(C)C(=O)N2Cc1ccc2ccccc2n1 (stereo not shown)	%	62.3
CN1CCN2C(=O)C3CSSC2(C1)C(=O)N3C (stereo not shown)	%	89.8
CCN1C(=O)C23COCCN2C(=O)C1CSS3 (stereo not shown)	%	75.5
O=C1C2CSSC3(COCCN13)C(=O)N2Cc1ccccc1 (stereo not shown)	%	75.1
CN1C(=O)C2(C)SSCC1C(=O)N2C (stereo not shown)	%	70.0
CCN1C(=O)C2(C)SSCC1C(=O)N2CC (stereo not shown)	%	85.8

====

system: yeast thioredoxin (Trx)/yeast Trx reductase (TR); assay: Peroxidase activity assay (H2O2 reduction, NADPH oxidation); format: biochemical; settings: 50 μM test compound, 3 μM yeast Trx, 1.5 μM yeast TR, 250 μM NADPH, 1.2 mM H2O2, 30° C.; NADPH oxidized per minute
Mark MET for reported Peroxidase activity for H2O2 reduction of 5 nmol/min or greater; mark NOT MET for anything smaller.

Compound	Target of assay	Category
O=C1C2CSSC3(CCCN13)C(=O)N2Cc1ccccc1 (stereo not shown)	yeast thioredoxin (Trx)/yeast Trx reductase (TR)	NOT MET
CN1C(=O)C2CSSC1(C)C(=O)N2Cc1ccccn1 (stereo not shown)	yeast thioredoxin (Trx)/yeast Trx reductase (TR)	NOT MET
CC1SSC2(C)C(=O)N(Cc3ccccc3)C1C(=O)N2C (stereo not shown)	yeast thioredoxin (Trx)/yeast Trx reductase (TR)	NOT MET
O=C1C2CSSC3(CCCN13)C(=O)N2Cc1ccncc1 (stereo not shown)	yeast thioredoxin (Trx)/yeast Trx reductase (TR)	NOT MET
O=C1C2CSSC3(COCCN13)C(=O)N2Cc1ccncc1 (stereo not shown)	yeast thioredoxin (Trx)/yeast Trx reductase (TR)	MET
CN1C(=O)C2CSSC1(C)C(=O)N2Cc1cnn(C)c1 (stereo not shown)	yeast thioredoxin (Trx)/yeast Trx reductase (TR)	NOT MET
COc1cc(CN2C(=O)C3(C)SSCC2C(=O)N3C)cc(OC)c1OC (stereo not shown)	yeast thioredoxin (Trx)/yeast Trx reductase (TR)	NOT MET
CN1C(=O)C2(C)SSCC1C(=O)N2Cc1cn(C)cn1 (stereo not shown)	yeast thioredoxin (Trx)/yeast Trx reductase (TR)	NOT MET
CN1C(=O)C2(Cc3ccccc3)SSCC1C(=O)N2C (stereo not shown)	yeast thioredoxin (Trx)/yeast Trx reductase (TR)	MET
CN1CCN2C(=O)C3CSSC2(C1)C(=O)N3Cc1ccccc1 (stereo not shown)	yeast thioredoxin (Trx)/yeast Trx reductase (TR)	MET
CN1C(=O)C2CSSC1(C)C(=O)N2Cc1cccs1 (stereo not shown)	yeast thioredoxin (Trx)/yeast Trx reductase (TR)	NOT MET
